# test-protocol: qHTS assay for measurement of the activity of small molecule inhibitors on Zika virus induced Caspase-3 activity in human astrocytoma cells (AID 1224859)
# experimental-context: SNB-19 ZIKV-induced caspase-3/7, luminescence, 6 h; series mostly up to 45.7 µM
Calls of active or inactive are those of the source. The call rests on the fitted dose curve; in most records, active means well fitted inhibition curve with a large enough effect; inconclusive means small, poorly fitted or top-dose-only effect; inactive means no such curve, though single readings can be large or run the other way.
recorded-metric: outcome

>>> print(df.to_string())
                                    compound  experimental_value
 0  C[C@@H]1CN(CCCn2c3ccccc3c3ccccc32)C[C@H](C)N1            inactive
 1  CC(CCc1ccccc1)NCC(O)c1ccc(O)c(C(N)=O)c1 (stereo unspecified)            inactive
 2  CCCCCCCCCCCCCCCCOP(=O)([O-])OCC[N+](C)(C)C            inactive
 3             CCOc1ccc2nc3cc(N)ccc3c(N)c2c1            inactive
 4  C[C@H](O)C(=O)Nc1c(I)c(C(=O)NC(CO)CO)c(I)c(C(=O)NC(CO)CO)c1I            inactive
 5               CCN(CCCc1ccccc1)CCCc1ccccc1            inactive
 6  CN(C(=O)CN(CCO)CC(=O)N(C)C(C)(C)Cc1ccccc1)C(C)(C)Cc1ccccc1            inactive
 7  CCOC(=O)OC(C)OC1=C(C(=O)Nc2ccccn2)N(C)S(=O)(=O)c2ccccc21 (stereo unspecified)            inactive
 8  C=C1C[C@H]2[C@@H]3C=C(C)C4=CC(=O)CC[C@]4(C)[C@H]3CC[C@]2(C)[C@@]1(OC(C)=O)C(C)=O            inactive
 9  C[C@]12CC[C@@H]3c4ccc(O)cc4CC[C@H]3[C@@H]1C[C@@H](O)[C@@H]2O            inactive
10                  Cc1cc(=O)n(-c2ccccc2)n1C            inactive
11  CO/N=C1\CN(c2nc3c(cc2F)c(=O)c(C(=O)O)cn3C2CC2)CC1CN (stereo unspecified)            inactive
12  Nc1nc2ncc(CNc3ccc(C(=O)N[C@@H](CCC(=O)O)C(=O)O)cc3)nc2c(=O)[nH]1            inactive
13  OC[C@@H](O)[C@@H](O[C@@H]1O[C@H](CO)[C@H](O)[C@H](O)[C@H]1O)[C@H](O)[C@@H](O)CO            inactive
14  COC(=O)[C@H]1[C@H]2C[C@H]3c4[nH]c5ccccc5c4CCN3C[C@H]2CC[C@@H]1O            inactive
15  O=C(CCN1CCC(c2ccccc2)C1)c1ccc2c(c1)OCCO2 (stereo unspecified)            inactive
16  NC(=O)c1cc[n+](CC2=C(C(=O)[O-])N3C(=O)[C@@H](NC(=O)Cc4cccs4)[C@H]3SC2)cc1            inactive
17                   CC(C)COC(=O)c1ccc(N)cc1            inactive
18  COc1cc2c(cc1OC)C(=O)C(CC1CCN(Cc3ccccc3)CC1)C2 (stereo unspecified)            inactive
19  Cc1c(C)n(CCN(C)C)c2ccc(C(=O)OCCN(C)C)cc12            inactive
20  Cc1cccc(C)c1NC(=O)CN1CCN(CCCC(c2ccc(F)cc2)c2ccc(F)cc2)CC1            inactive

Hey, just so you know, these numbers are from PubChem BioAssay (NCATS).
